molecular target: Receptor-type tyrosine-protein kinase FLT3 (Homo sapiens, UniProt P36888, D835Y); test: Inhibition of FLT3 D835Y mutant (unknown origin)

CHEMICAL STRUCTURE | EXPERIMENTAL SYSTEM | IC50, nM
Cc1c[nH]c(CNC(=O)c2ccc(-c3nc4ccc5[nH]ncc5c4c4c3CCCC4)cc2)n1 | Receptor-type tyrosine-protein kinase FLT3 (Homo sapiens, UniProt P36888, D835Y) | 0.024

* * *

molecular target: Receptor-type tyrosine-protein kinase FLT3 (Homo sapiens) (UniProt P36888); experiment: Inhibition of FLT3 (unknown origin) at 50 nM by ADP Glo kinase assay relative to control

CHEMICAL STRUCTURE | inhibition / %
O=C(NCc1ncc[nH]1)c1ccc(-c2nc3ccc4[nH]ncc4c3c3c2CCCC3)c(F)c1 | 88
CCc1nc(C(N)=O)c(Nc2ccc(N3CCC(N4CCN(C)CC4)CC3)c(OC)c2)nc1NC1CCOCC1 | 93
O=C(NCc1nnc[nH]1)c1ccc(-c2nc3ccc4[nH]ncc4c3c3c2CCCC3)cc1 | 49
FC(F)(F)c1n[nH]cc1-c1nc2ccc3[nH]ncc3c2c2c1CCCC2 | 81
O=C(NCc1nccs1)c1ccc(-c2nc3ccc4[nH]ncc4c3c3c2CCCC3)cc1 | 53
O=C(NCc1ncc[nH]1)c1ccc(-c2nc3ccc4[nH]ncc4c3c3c2CCCC3)cc1F | 85
